Measurement notes: Tmax in healthy C57BL/6 mouse at 25 mg/kg, po measured up to 6 hrs by UPLC-MS/MS analysis
Type: ADME, organism-based
Run parameters: in vivo
Readout type: Tmax (h)
Reply with just the number (in h).

Quick one: Tmax for O=C(O)[C@@H](CO)NC(=O)[C@H]1C[C@@H](O)CN1 ?
4

---

Measurement notes: Cmax in healthy C57BL/6 mouse at 25 mg/kg, po measured up to 6 hrs by UPLC-MS/MS analysis
Type: ADME, organism-based
Design: route oral, dose 25 mg/kg, time <=6
Run parameters: in vivo
Readout type: Cmax (µM)
Please reply with the bare figure in µM and do not write the unit itself.

Given the entry O=C(O)[C@@H](CO)NC(=O)[C@H]1C[C@@H](O)CN1 , report its measured Cmax.
5.79
